- TARGET_SYSTEM: Mast/stem cell growth factor receptor Kit (Homo sapiens)
- Sequence (P10721 whole entry): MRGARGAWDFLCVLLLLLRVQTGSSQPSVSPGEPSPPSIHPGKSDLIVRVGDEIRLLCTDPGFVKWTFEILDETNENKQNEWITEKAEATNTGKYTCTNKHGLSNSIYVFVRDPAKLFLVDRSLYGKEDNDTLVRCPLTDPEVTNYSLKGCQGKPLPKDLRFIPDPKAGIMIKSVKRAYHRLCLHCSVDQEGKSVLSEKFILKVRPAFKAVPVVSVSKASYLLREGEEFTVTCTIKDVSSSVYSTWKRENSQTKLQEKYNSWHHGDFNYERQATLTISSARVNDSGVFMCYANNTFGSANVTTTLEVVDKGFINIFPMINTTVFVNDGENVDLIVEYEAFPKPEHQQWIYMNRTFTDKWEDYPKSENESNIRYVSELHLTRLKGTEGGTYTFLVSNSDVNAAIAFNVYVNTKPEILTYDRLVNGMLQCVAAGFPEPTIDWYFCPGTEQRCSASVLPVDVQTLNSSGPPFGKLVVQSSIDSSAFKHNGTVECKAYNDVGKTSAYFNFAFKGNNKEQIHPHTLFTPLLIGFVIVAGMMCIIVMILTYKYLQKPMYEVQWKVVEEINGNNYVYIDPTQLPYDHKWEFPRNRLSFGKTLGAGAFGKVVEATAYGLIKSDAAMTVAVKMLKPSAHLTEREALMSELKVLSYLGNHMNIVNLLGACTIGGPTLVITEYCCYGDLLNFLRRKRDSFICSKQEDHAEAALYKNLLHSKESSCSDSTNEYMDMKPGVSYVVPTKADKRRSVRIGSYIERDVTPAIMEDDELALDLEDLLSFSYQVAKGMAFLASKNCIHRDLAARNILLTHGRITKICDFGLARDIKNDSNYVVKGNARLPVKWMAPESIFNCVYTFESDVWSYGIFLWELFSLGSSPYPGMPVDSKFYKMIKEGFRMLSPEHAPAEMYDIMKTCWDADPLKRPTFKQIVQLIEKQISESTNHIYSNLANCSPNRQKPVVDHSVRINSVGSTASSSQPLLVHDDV
pIC50: −log10 of the molar value.
OBSERVATION_TYPE: pIC50

sample_smiles=CN1CCC(Nc2nc(Nc3ccc(Oc4ccccc4)cc3)c3c(=O)[nH]cc(Br)c3n2)CC1 target_system="Mast/stem cell growth factor receptor Kit (Homo sapiens)" bound_type== assay_result=8.42
sample_smiles=CC(C)N1CCC(Nc2ncc(C(N)=O)c(Nc3ccc(Oc4ccccc4)cc3)n2)CC1 target_system="Mast/stem cell growth factor receptor Kit (Homo sapiens)" bound_type=< assay_result=4.00

====

Quick reference for pIC50 among some compounds
- Tested on: MV4-11
- TEST_METHOD_NOTES: cells
- CONDITIONS: Homo sapiens
- Description: Antiproliferative activity against human MV4-11 cells by CCK-8 assay
pIC50: −log10 of the molar value.
OBSERVATION_TYPE: pIC50

sample_smiles=NC(=O)c1cnc(NC2CCCC2)nc1Nc1ccc(Oc2ccccc2)cc1 observation_type=pIC50 assay_result=5.11
sample_smiles=CCNC(=O)c1c(C)nc(NC2CCN(C)CC2)nc1Nc1ccc(Oc2ccccc2)cc1 observation_type=pIC50 assay_result=5.30
sample_smiles=CCOC(=O)c1c(C)nc(NC2CCN(C)CC2)nc1Nc1ccc(Oc2ccccc2)cc1 observation_type=pIC50 assay_result=5.27
sample_smiles=CC(C)N1CCC(Nc2ncc(C(N)=O)c(Nc3ccc(Oc4ccccc4)cc3)n2)CC1 observation_type=pIC50 assay_result=6.23
sample_smiles=CN1CCC(N(C)c2ncc(C#N)c(Nc3ccc(Oc4ccccc4)cc3)n2)CC1 observation_type=pIC50 assay_result=5.68
sample_smiles=CN1CCC(Nc2nc(Nc3ccc(Oc4ccccc4)cc3)c3ccccc3n2)CC1 observation_type=pIC50 assay_result=5.29
